// provenance: patent US10954214B2

A set of compounds tested on full-length MALT1 protein (Strep-MALT1(1-824)-His) (Homo sapiens (Human), UniProt Q9UDY8), with measured pIC50:
pIC50: −log10 of the molar value.
RESULT_TYPE: pIC50

Completed entries (count: 4):
Cc1ccc2cncc(-n3ncc(C(=O)Nc4cnc(-n5nccn5)c(Cl)c4)c3C(F)(F)F)c2c1 = 7.20
Cc1nc(-n2nccn2)c(Cl)cc1NC(=O)c1cnn(-c2ccc(F)c3nccn23)c1C(F)(F)F = 6.79
CNc1ncc(-n2ncc(C(=O)Nc3cnc(-n4nccn4)c(C#N)c3)c2C(F)(F)F)c2cccc(F)c12 = 7.26
O=C1COc2c(Cl)cc(NC(=O)c3cnn(-c4cncc5ccccc45)c3C(F)(F)F)cc2N1 = 6.85

a = N#Cc1cc(NC(=O)c2cnn(-c3ncnc4sccc34)c2C(F)(F)F)cnc1-n1nccn1
b = Cc1nc2cccc(-n3ncc(C(=O)Nc4cnc(-n5nccn5)c(C#N)c4)c3C(F)(F)F)c2s1
c = O=C(Nc1cnc(-c2ncco2)c(Cl)c1)c1cnn(-c2cccc3ncccc23)c1C(F)(F)F
rank_up(items): orders items by reported pIC50 in ascending numerical order. List the labels in the requested order.
b, a, c
(b: 6.46, a: 7.59, c: 7.82)

P = COc1cc(NC(=O)c2cnn(-c3cccc4c(=O)[nH]ccc34)c2C(F)(F)F)ccn1
Q = N#Cc1cc(NC(=O)c2cnn(-c3ncc(F)c4ccccc34)c2C(F)(F)F)cnc1-n1nccn1
R = CC(O)c1ncc(-n2ncc(C(=O)Nc3cnc(-n4nccn4)c(Cl)c3)c2C(F)(F)F)c2ccccc12 (stereo not drawn)
Write the entries in order, lowest recorded pIC50 first. Dear reader, please state the labels in the requested order.
P, Q, R
(P: 5.57, Q: 6.72, R: 7.16)

A = CN(C)Cc1cnn(-c2ncc(NC(=O)c3cnn(-c4cccc5ncccc45)c3C(F)(F)F)cc2Cl)n1
B = Cc1ncn(-c2ncc(NC(=O)c3cnn(-c4cncc5ccccc45)c3C(F)(F)F)cc2Cl)n1
C = Cc1nc(-n2cccn2)c(Cl)cc1NC(=O)c1cnn(-c2cccc3nnsc23)c1C(F)(F)F
List these items ordered by pIC50, big to small. Response format: the labels, sorted as the prompt asks.
A, B, C
(A: 7.64, B: 7.00, C: 6.55)

I = O=C(Nc1cnc(-n2nccn2)c(Cl)c1)c1cnn(-c2cccc3cnccc23)c1C(F)(F)F
II = O=C(Nc1cnc(-n2nccn2)c(F)c1)c1cnn(-c2cncc3ccccc23)c1C(F)(F)F
Which entry has a larger number for pIC50, I or II ? Kindly state the label of the option you pick.
I
(I: 7.64, II: 6.99)

---

Tested on: IL6 secretion by OCI-LY3 ABC-DLBCL cells
MEASUREMENT_PROTOCOL: Human IL6 Mesoscale assay (OCI-LY3)
Assay type: cell-based
MEASUREMENT_SETUP: Homo sapiens, 24 h
pIC50: −log10 of the molar value.
RESULT_TYPE: pIC50

I = N#Cc1cc(NC(=O)c2cnn(-c3cccc4nc(N)ccc34)c2C(F)(F)F)cnc1-n1nccn1 [Cpd 332]
II = O=C(Nc1cnc(-n2nccn2)c(Cl)c1)c1cnn(-c2cnc(Cl)c3ccccc23)c1C(F)(F)F [Cpd 285]
# argmax over pIC50 for candidates I and II Bench note: the answer is the label of the chosen record.
I
